ASSAY_SYSTEM: Dual specificity protein phosphatase 6 (Rattus norvegicus)
ASSAY_NAME: MKP-3 phosphatase inhibitors, primary screen, biochemical, rat enzyme, in vitro (AID 425)
REPORTED_CONDITIONS: recombinant MKP-3 phosphatase activity, fluorescence; at 20 µM
Among all 110,000 compounds or so, about 190 (0.17%) were called active. No stated cut-off is given here; in the data, active means inhibition above about 50%; inactive means the rest. Shown is part of a subset that was picked to be rich in actives. Measured potencies and affinities stand elsewhere.
Give one outcome, nothing more. List: y (active), n (inactive)

> print(dat)
                                   compound  discrete.label
1  O=c1[nH]c(=S)n(-c2ccccc2F)c(O)c1C=C1C=CC=N1               y
2  O=c1[nH]c(=O)n(-c2ccccc2Cl)c(O)c1C=C1C=CC=N1               n
3         Cc1cc(O)c2c(-c3ccccc3)cc(=O)oc2c1               n
4  COc1ccc(/C=N/Nc2nnc(-c3ccccc3)c(-c3ccccc3)n2)cc1               n
5              O=C(Nc1ccc(Br)cc1)N1CCCCCCC1               n

// next entry
Q: Hello, I am checking results. What call was entered for Cc1ccccc1-n1c(O)c(C=C2C=CC=N2)c(=O)[nH]c1=S ?
A: n
